B1: CCDC6 (parent)
chain: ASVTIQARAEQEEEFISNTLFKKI

# Variants of: B1
# assay.procedure: protein stability index of a GFP-peptide fusion (GPS, HEK-293T) (PSI 1-6); higher = more stable;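 note: lentivirally expressed fusions sorted by FACS into six bins by GFP to DsRed ratio, PSI derived from sequencing read proportions per bin multiplied by bin number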
# assay.conditions: c terminus: a fixed tail appended
readout.name: protein stability index

Would you please look over these solved cases?
Return value of protein stability index for input V3T , no commentary.
4.57

Return value of protein stability index for input E14P , no commentary.
3.01

Return value of protein stability index for input A7F , no commentary.
1.98

Return value of protein stability index for input N18W , no commentary.
2.43

Return value of protein stability index for input K23A , no commentary.
3.23

Return value of protein stability index for input K22L , no commentary.
2.19

Now consider a different variant.
Return value of protein stability index for input K22M , no commentary.
1.74
